Values from paper PMC5940854

Items are presented alongside their recorded MIC.
Test system: E. coli clinical isolates
Assay: MIC on panel of E. coli clinical isolates
Assay type: cell-based
Settings: strain SEC055
Write the answer as a number in µg/mL, unit excluded.

Previously resolved entries follow.
Enquiry: Any idea what its MIC is? The compound is CNC(C)C1CCC(N)C(OC2C(N)CC(N)C(OC3OCC(C)(O)C(NC)C3O)C2O)O1 (stereo not drawn) [gentamicin, reference compound]
Return: 2

Enquiry: # iterate: COc1cc(-c2csc(NC(=O)c3ccc([N+](=O)[O-])s3)n2)ccc1Cl
Return: 2

Enquiry: Input O=C(Nc1nc(-c2ccc(F)cc2)cs1)c1ccc([N+](=O)[O-])s1
Return: 1

Enquiry: Field entry: O=C1CN(/N=C/c2ccc([N+](=O)[O-])o2)C(=O)N1 [nitrofurantoin, reference compound]
Return: 20

Enquiry: Okay, and C[C@@H](O)[C@H]1C(=O)N2C(C(=O)O)=C(S[C@@H]3CN[C@H](C(=O)N(C)C)C3)[C@H](C)[C@H]12 [meropenem, reference compound] ?
Return: 0.06

Further cases:
Enquiry: What measured MIC goes with O=C(Nc1nc(-c2ccc(F)cc2F)cs1)c1ccc([N+](=O)[O-])s1 ?
Return: 2

====

Test system: wild-type E. coli CGSC#7636 (BW25113)
Experiment: MIC, wild-type E. coli
Format: cell-based
Conditions: Escherichia coli, BW25113, E. coli WT BW25113; read-out: MIC WT
quantity name: MIC

// worked examples, MIC included
Enquiry: Bench note: what MIC did O=C(Nc1nc(-c2cc(F)cc(F)c2)cs1)c1ccc([N+](=O)[O-])s1 show?
Return: > 20 mg/L

Enquiry: Next compound up: CN(C)Cc1sc(NC(=O)c2ccc([N+](=O)[O-])s2)nc1-c1ccc(F)cc1
Return: > 40 mg/L

Now for the compound whose MIC we want.
Enquiry: Param item = N#Cc1ccc(-c2csc(NC(=O)c3ccc([N+](=O)[O-])s3)n2)cc1 ; retrieve measured MIC.
Return: > 40 mg/L

====

Tested on: wild-type E. coli CGSC#7636 (BW25113)
Assay: MIC, wild-type E. coli
Format: cell-based
Conditions: Escherichia coli, BW25113, E. coli WT BW25113; read-out: MIC WT
Recorded measurements of MIC, one per entry

Worked set:
Enquiry: Which measured MIC value corresponds to Cc1sc(NC(=O)c2ccc(C(F)(F)F)s2)nc1-c1ccccc1 [compound 8] ?
Return: > 40 µg/mL

Enquiry: Next compound up: Cc1sc(NC(=O)c2ccc([N+](=O)[O-])s2)nc1-c1ccccc1 [compound 7]
Return: > 40 µg/mL

Then this compound:
Enquiry: What does the record list as MIC for Cc1sc(NC(=O)c2ccc([N+](=O)[O-])s2)nc1-c1ccc(F)cc1 [compound 9] ?
Return: > 40 µg/mL
